- target under test: T1, human PVRIG-mFc protein (Acro, PVG-H5253) (human, UniProt Q6DKI7 41-171, limits assumed)
- T1 construct: extracellular domain; Bought protein; also called PVRIG-ECD-mFc; not shown: mouse Fc tag of the bought protein
- T1 sequence (looked up): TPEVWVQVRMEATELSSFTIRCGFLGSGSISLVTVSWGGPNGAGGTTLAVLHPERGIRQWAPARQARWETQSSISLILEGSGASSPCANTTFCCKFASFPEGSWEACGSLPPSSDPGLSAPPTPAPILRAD
- assay notes: FACS blocking of PVRIG-mFc binding to CHO-K1-CD112 cells; competitor CD112
metric: % AUC to COM701-hIgG4
Note: a bare number is incomplete; add the unit.

Per the record, PVRIG-A118 (Fc fusion, Alpaca VHH expressed as VHH-hinge-CH2-CH3 of human IgG1; not shown: human IgG1 hinge-CH2-CH3 (Fc)) QVQLVESGGGLVQAGGSLRLSCAASETYFDLYVMGWYRQAPGKDRELVATITYTGSIKIVDSVKDRFTISRGDAKNTVSLQMSSLKPEDTAVYFCNADPSGLGRKVYWGQGTQVTVSS has % AUC to COM701-hIgG4 of 119%

Per the record, PVRIG-A105-H1 (Fc fusion, VHH-human IgG1 Fc format is stated for the parental VHH antibodies; not restated for the humanized variants; also called A105.VH1; not shown: human IgG1 hinge-CH2-CH3 (Fc)) EVQLVESGGGLVQPGGSLRLSCAASGRTFDRHTMSWFRQAPGKEREFVATASRIPGDTYYVDSVKGRFTISRDNAKNSLYLQMNSLRAEDTAVYYCAATSAYCSEVDCYEKGSWYDNWGQGTMVTVSS has % AUC to COM701-hIgG4 of 111%

Per the record, PVRIG-A118-H1 (Fc fusion, VHH-human IgG1 Fc format is stated for the parental VHH antibodies; not restated for the humanized variants; also called A118.VH1; not shown: human IgG1 hinge-CH2-CH3 (Fc)) EVQLVESGGGLVQPGGSLRLSCAASETYFDLYVMGWYRQAPGKDRELVATITYTGSIYYVDSVKGRFTISRDNAKNSLYLQMNSLRAEDTAVYYCNADPSGLGRKVYWGQGTMVTVSS has % AUC to COM701-hIgG4 of 120%

Per the record, PVRIG-A50-H1b (Fc fusion, VHH-human IgG1 Fc format is stated for the parental VHH antibodies; not restated for the humanized variants; also called A50.VH1b; not shown: human IgG1 hinge-CH2-CH3 (Fc)) EVQLVESGGGLVQPGGSLRLSCAASGFTFSYYDMSWVRQAPGKGLEWVSTINSDGGRTSYVDSVKGRFTISRDNSKNTLYLQMNSLRAEDTAVYYCVEGDPHNFGLESLSLRDFGSWGQGTMVTVSS has % AUC to COM701-hIgG4 of 104%
